src = patent US7955808B2

- Assay Target: hTAS2R38 (Homo sapiens, UniProt P59533)
- Construct: gene-specific primers that span the complete coding region ... contains the first 45 amino acids of the rat somatostatin type 3 receptor
- Sequence (P59533 1-333 A49P/I296V): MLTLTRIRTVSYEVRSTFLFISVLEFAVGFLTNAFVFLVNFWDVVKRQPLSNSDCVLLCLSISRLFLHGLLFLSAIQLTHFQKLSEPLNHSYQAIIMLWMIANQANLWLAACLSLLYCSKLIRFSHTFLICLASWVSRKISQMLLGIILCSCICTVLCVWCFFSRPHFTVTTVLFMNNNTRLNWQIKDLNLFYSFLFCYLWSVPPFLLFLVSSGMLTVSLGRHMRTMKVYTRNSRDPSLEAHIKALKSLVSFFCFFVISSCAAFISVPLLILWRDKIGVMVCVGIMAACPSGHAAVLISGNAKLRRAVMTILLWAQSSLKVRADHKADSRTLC
- Method Description: FLIPR assay, heterologous expression of hTAS2R38
- Format: cell-based
Recorded Metric: Approx. Threshold (µM)

Use the examples below as a reference point.
CCCc1cc(=O)[nH]c(=S)[nH]1 : 0.3
NC(=S)Nc1ccccc1 : 0.3
O=c1cc[nH]c(=S)[nH]1 : 300

(I) CCNC(N)=S
(II) Cc1cc(=O)[nH]c(=S)[nH]1
In: Which value of Approx. Threshold is numerically greater: that of I or that of II ? Answer by stating the label of the chosen item.
Out: I

(P) CC(=S)Nc1ccccc1 [Thioacetanilide]
(Q) CC(=O)NC(N)=S
In: Problem: Given the entries P and Q , determine which has the lower reported Approx. Threshold. Pick one; state its label.
Out: Q

====

- Assay Target: hTAS2R38 (Homo sapiens, UniProt P59533)
- Construct: gene-specific primers that span the complete coding region ... contains the first 45 amino acids of the rat somatostatin type 3 receptor
- Sequence (P59533 1-333 A49P/I296V): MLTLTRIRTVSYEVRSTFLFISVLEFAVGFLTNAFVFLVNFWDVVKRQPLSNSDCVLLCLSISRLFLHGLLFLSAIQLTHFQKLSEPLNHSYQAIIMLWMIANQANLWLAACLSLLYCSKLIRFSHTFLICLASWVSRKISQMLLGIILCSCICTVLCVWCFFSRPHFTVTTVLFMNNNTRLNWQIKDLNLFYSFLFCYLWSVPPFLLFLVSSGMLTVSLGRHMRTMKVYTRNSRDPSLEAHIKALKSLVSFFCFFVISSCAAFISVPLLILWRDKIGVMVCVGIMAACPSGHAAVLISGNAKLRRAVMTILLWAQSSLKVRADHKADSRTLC
- Method Description: FLIPR assay, heterologous expression of hTAS2R38
- Type: cell-based
- Experimental Setup: read-out: EC50
Recorded Metric: EC50 (µM)

Use these answered entries as a reference point.
CCCc1cc(=O)[nH]c(=S)[nH]1 : 2
CN(C)C(=S)N(C)C : 100
CCNC(N)=S : 260
CC(=O)NC(N)=S : 15

(I) CC(=S)Nc1ccccc1 [Thioacetanilide]
(II) Cc1cc(=O)[nH]c(=S)[nH]1
In: Pick one, I or II : lowest reported EC50. Give the label of your selection.
Out: I
(I: 18 µM, II: 180 µM)

====

- Assay Target: hTAS2R38 (Homo sapiens, UniProt P59533)
- Construct: gene-specific primers that span the complete coding region ... contains the first 45 amino acids of the rat somatostatin type 3 receptor
- Method Description: FLIPR assay, heterologous expression of hTAS2R38
- Assay type: cell-based
Recorded Metric: pEC50
Remember, pEC50 is on a log scale: it is -log10 of the molar concentration.

Query `NC(=S)Nc1ccccc1` yields pEC50 of 5.70

====

- Assay Target: hTAS2R10 (Homo sapiens, UniProt Q9NYW0, T156M)
- Construct: gene-specific primers that span the complete coding region of the individual hTAS2R genes; first 45 amino acids of rat somatostatin type 3 receptor (cell surface-targeting signal) (N); expressed in transfected cells; host or cells: HEK-293T-Gα16gustducin44 cells (alternatively HEK-293 co-transfected with phospholipase-Cβ2 and α-gustducin)
- Sequence (Q9NYW0 whole entry T156M): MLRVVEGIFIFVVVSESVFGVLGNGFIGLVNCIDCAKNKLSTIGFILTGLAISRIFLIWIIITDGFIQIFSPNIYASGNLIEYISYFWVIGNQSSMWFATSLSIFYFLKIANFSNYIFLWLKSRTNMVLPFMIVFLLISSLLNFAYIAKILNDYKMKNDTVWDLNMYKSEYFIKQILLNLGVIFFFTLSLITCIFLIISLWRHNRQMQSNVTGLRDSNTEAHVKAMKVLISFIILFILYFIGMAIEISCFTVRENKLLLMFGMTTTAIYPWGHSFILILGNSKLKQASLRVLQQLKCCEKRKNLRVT
- Method Description: FLIPR assay, heterologous expression of hTAS2R10
- Format: cell-based
Recorded Metric: pEC50
pEC50 (log units): -log10 of the concentration in mol/L.

COc1cc2c(cc1OC)[C@@]13CCN4CC5=CCO[C@H]6CC(=O)N2[C@H]1[C@H]6[C@H]5C[C@H]43 : 4.22

--- query ---
The measured pEC50 associated with `O=C1C[C@@H]2OCC=C3CN4CC[C@]56c7ccccc7N1[C@H]5[C@H]2[C@H]3C[C@H]46` reads 4.40

====

- Assay Target: hTAS2R16 (Homo sapiens, UniProt Q9NYV7, R222H)
- Construct: gene-specific primers that span the complete coding region of the individual hTAS2R genes; first 45 amino acids of rat somatostatin type 3 receptor (cell surface-targeting signal) (N); expressed in transfected cells; host or cells: HEK293/15 cells (HEK293 stably expressing Galpha15), transient transfection
- Method Description: FLIPR assay, heterologous expression of hTAS2R16
- Format: cell-based
- Experimental Setup: hTAS2R16
Recorded Metric: Threshold (mM)
Expressed in mM, but write only the number.

O=c1ccc2cc(O[C@@H]3O[C@H](CO)[C@@H](O)[C@H](O)[C@H]3O)c(O)cc2o1 : 4
OCc1ccccc1O[C@@H]1O[C@H](CO)[C@@H](O)[C@H](O)[C@H]1O : 0.07

In the following, a different molecule is considered.
Form field Threshold, entry OC[C@H]1O[C@@H](Oc2ccccc2)[C@H](O)[C@@H](O)[C@@H]1O [Compound 1, phenyl-beta-D-glucopyranoside] : 0.07

====

- Assay Target: hTAS2R16 (Homo sapiens, UniProt Q9NYV7, R222H)
- Construct: gene-specific primers that span the complete coding region of the individual hTAS2R genes; first 45 amino acids of rat somatostatin type 3 receptor (cell surface-targeting signal) (N); expressed in transfected cells; host or cells: HEK293/15 cells (HEK293 stably expressing Galpha15), transient transfection
- Method Description: FLIPR assay, heterologous expression of hTAS2R16
- Format: cell-based
- Experimental Setup: hTAS2R16; read-out: EC50
pEC50: −log10 of the molar value.
Recorded Metric: pEC50

(a) OC[C@H]1O[C@@H](Oc2ccc3ccccc3c2)[C@H](O)[C@@H](O)[C@@H]1O [Compound 6, naphthyl-beta-D-pyranoside]
(b) O=Cc1ccccc1O[C@@H]1O[C@H](CO)[C@@H](O)[C@H](O)[C@H]1O
In: Decide: a or b , by lowest recorded pEC50. Indicate your choice by writing its label.
Out: b

====

- Assay Target: hTAS2R16 (Homo sapiens, UniProt Q9NYV7, R222H)
- Construct: gene-specific primers that span the complete coding region of the individual hTAS2R genes; first 45 amino acids of rat somatostatin type 3 receptor (cell surface-targeting signal) (N); expressed in transfected cells; host or cells: HEK293/15 cells (HEK293 stably expressing Galpha15), transient transfection
- Sequence (Q9NYV7 1-291 R222H): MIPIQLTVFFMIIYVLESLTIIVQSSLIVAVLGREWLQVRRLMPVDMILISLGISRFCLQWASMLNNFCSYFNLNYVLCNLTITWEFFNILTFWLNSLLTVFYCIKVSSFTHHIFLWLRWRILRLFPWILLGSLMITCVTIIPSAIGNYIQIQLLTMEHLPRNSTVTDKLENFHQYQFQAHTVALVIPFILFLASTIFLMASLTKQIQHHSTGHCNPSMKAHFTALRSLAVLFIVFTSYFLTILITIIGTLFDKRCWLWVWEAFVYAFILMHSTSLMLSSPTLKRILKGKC
- Method Description: FLIPR calcium assay, hTAS2R16-expressing HEK293/15 transfectants
- Format: cell-based
Recorded Metric: Threshold Value FLIPR (mM)

Before answering, review these 3 worked examples.
O=c1ccc2cc(O[C@@H]3O[C@H](CO)[C@@H](O)[C@H](O)[C@H]3O)c(O)cc2o1 [Compound 9, esculin] : 4
OCc1ccccc1O[C@@H]1O[C@H](CO)[C@@H](O)[C@H](O)[C@H]1O [Compound 2, salicin] : 0.07
OC[C@H]1O[C@@H](Oc2ccc(O)cc2)[C@H](O)[C@@H](O)[C@@H]1O [Compound 4, arbutin] : 0.5

(I) O=Cc1ccccc1O[C@@H]1O[C@H](CO)[C@@H](O)[C@H](O)[C@H]1O [Compound 3, helicin]
(II) O=[N+]([O-])c1ccccc1O[C@@H]1O[C@H](CO)[C@@H](O)[C@H](O)[C@H]1O [Compound 5, 2-nitro-phenyl-beta-D-glucopyranoside]
(III) OC[C@H]1O[C@@H](Oc2ccccc2)[C@H](O)[C@@H](O)[C@@H]1O [Compound 1, phenyl-beta-D-glucopyranoside]
In: Rank the 3 compounds: largest Threshold Value FLIPR first, smallest last. List each label, following the requested order.
Out: II, I, III
